- System: Vibrio cholerae
- measurement notes: growth AUC normalised to DMSO control (fraction of control); higher = less growth inhibition, active = hit call of the paper
- test parameters: 20 µM
Where a name gives a salt, the structure may show the parent alone.
recorded endpoint: growth AUC normalised to DMSO control

Suppose we examine the compound CCC1(C)CC(=O)NC1=O (stereo not drawn) [Ethosuximide] ; what growth AUC normalised to DMSO control value has been reported? 1.03 (inactive)

Suppose we examine the compound Cc1ccc(S(=O)(=O)NC(=O)NN2CCCCCC2)cc1 [Tolazamide] ; what growth AUC normalised to DMSO control value has been reported? 1.03 (inactive)

Suppose we examine the compound CCCNC(C)(C)COC(=O)c1ccccc1 [Meprylcaine hydrochloride] ; what growth AUC normalised to DMSO control value has been reported? 1.01 (inactive)

Suppose we examine the compound C[C@H](N)[C@H](O)c1cccc(O)c1 [Metaraminol bitartrate] ; what growth AUC normalised to DMSO control value has been reported? 0.984 (inactive)

Suppose we examine the compound CCCCC1C(=O)N(c2ccccc2)N(c2ccc(O)cc2)C1=O (stereo not drawn) ; what growth AUC normalised to DMSO control value has been reported? 1.03 (inactive)

Suppose we examine the compound CC(C)(C)NC(=O)[C@H]1CC[C@H]2[C@@H]3CC[C@H]4NC(=O)C=C[C@]4(C)[C@H]3CC[C@]12C [Finasteride] ; what growth AUC normalised to DMSO control value has been reported? 1.03 (inactive)

Suppose we examine the compound C[C@H](CCC(=O)O)[C@H]1CC[C@H]2[C@@H]3C(=O)C[C@@H]4CC(=O)CC[C@]4(C)[C@H]3CC(=O)[C@]12C [Dehydrocholic acid] ; what growth AUC normalised to DMSO control value has been reported? 0.983 (inactive)

Suppose we examine the compound Nc1nc(N)nc(-c2cc(Cl)ccc2Cl)n1 [Irsogladine maleate] ; what growth AUC normalised to DMSO control value has been reported? 0.999 (inactive)

Suppose we examine the compound `COc1ccccc1O` ; what growth AUC normalised to DMSO control value has been reported? 0.992 (inactive)

Suppose we examine the compound CCN(CC)CCc1nc(-c2ccccc2)no1 [Oxolamine citrate salt] ; what growth AUC normalised to DMSO control value has been reported? 1.04 (inactive)

Suppose we examine the compound CC(CCc1ccc(O)cc1)NCCc1ccc(O)c(O)c1 (stereo not drawn) [Dobutamine hydrochloride] ; what growth AUC normalised to DMSO control value has been reported? 0.99 (inactive)

Suppose we examine the compound CC(C[N+](C)(C)C)OC(N)=O (stereo not drawn) [Bethanechol chloride] ; what growth AUC normalised to DMSO control value has been reported? 1.02 (inactive)

Suppose we examine the compound O=C(O)Cc1ccccc1Nc1c(Cl)cccc1Cl [Diclofenac sodium] ; what growth AUC normalised to DMSO control value has been reported? 0.973 (inactive)

Suppose we examine the compound CC(C)(C)NC[C@H](O)COc1nsnc1N1CCOCC1 [Timolol maleate salt] ; what growth AUC normalised to DMSO control value has been reported? 1.01 (inactive)

Suppose we examine the compound CCC[C@@H]1C[C@@H](C(=O)N[C@@H]([C@H]2O[C@H](SC)[C@H](O)[C@@H](O)[C@H]2O)[C@@H](C)O)N(C)C1 [Lincomycin hydrochloride] ; what growth AUC normalised to DMSO control value has been reported? 0.956 (inactive)

Suppose we examine the compound CN1CCCN(C(c2ccccc2)c2ccc(Cl)cc2)CC1 (stereo not drawn) [Homochlorcyclizine dihydrochloride] ; what growth AUC normalised to DMSO control value has been reported? 0.861 (inactive)

Suppose we examine the compound `Cc1[nH]c(=O)c(C#N)cc1-c1ccncc1` ; what growth AUC normalised to DMSO control value has been reported? 0.968 (inactive)

Suppose we examine the compound CN1CCCN=C1/C=C/c1cccc(O)c1 [Oxantel pamoate] ; what growth AUC normalised to DMSO control value has been reported? 1.05 (inactive)
